Cited source for all entries: the Human Domainome abundance scans (Beltran et al. 2025)

Let's look at some variants and their measured abundance fitness.
B1: Retinoic acid receptor beta, residues 85 to 161; numbered along this chain, P10826 (parent)
chain: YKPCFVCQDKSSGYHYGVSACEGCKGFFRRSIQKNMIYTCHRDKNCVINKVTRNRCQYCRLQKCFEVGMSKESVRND

Variants of: B1
Experiment: abundance fitness (aPCA) (normalised: wild type 0, dead -1); higher = more abundant; growth selection in yeast, the domain comes from the species named
Conditions: Homo sapiens
Output: the number by itself.

Determine from records and report abundance fitness for YKPCFVCQDKSSGYHYHVSACEGCKGFFRRSIQKNMIYTCHRDKNCVINKVTRNRCQYCRLQKCFEVGMSKESVRND [G17H]
-0.292

Determine from records and report abundance fitness for YKPCFVCQDKSSGYHYGVWACEGCKGFFRRSIQKNMIYTCHRDKNCVINKVTRNRCQYCRLQKCFEVGMSKESVRND [S19W]
0.024
